Measured AC50 of individual entries
- Study system: 5-hydroxytryptamine receptor 2B (Homo sapiens, UniProt P41595); also: assay procedure not described here
- Sequence (P41595 whole entry): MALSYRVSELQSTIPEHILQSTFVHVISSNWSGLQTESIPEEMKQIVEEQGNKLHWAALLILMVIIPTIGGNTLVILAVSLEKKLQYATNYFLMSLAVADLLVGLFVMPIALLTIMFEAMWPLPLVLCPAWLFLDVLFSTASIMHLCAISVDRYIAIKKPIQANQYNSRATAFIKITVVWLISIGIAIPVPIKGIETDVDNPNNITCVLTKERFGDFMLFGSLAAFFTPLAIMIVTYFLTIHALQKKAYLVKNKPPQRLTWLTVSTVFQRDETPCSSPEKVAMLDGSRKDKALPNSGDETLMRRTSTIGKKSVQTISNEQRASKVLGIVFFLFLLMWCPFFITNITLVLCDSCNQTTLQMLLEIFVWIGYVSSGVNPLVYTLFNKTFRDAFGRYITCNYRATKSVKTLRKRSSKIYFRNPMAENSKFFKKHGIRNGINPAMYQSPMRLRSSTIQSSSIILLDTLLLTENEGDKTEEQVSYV
- Assay type: functional, cell-based

- Compound: "COc1ccc(C(=O)N2CCN(c3ccc4c(c3)CCC(=O)N4)CC2)cc1OC"
  AC50: "> 30 µM"
- Compound: "C#CCN[C@@H]1CCc2ccccc21"
  AC50: "> 30 µM"
- Compound: "O=C(CCCCC(=O)Nc1c(I)cc(I)c(C(=O)O)c1I)Nc1c(I)cc(I)c(C(=O)O)c1I [IODIPAMIDE]"
  AC50: "> 10 µM"
- Compound: "CCOC(=O)[C@H](CCc1ccccc1)N[C@@H](C)C(=O)N1CCC[C@H]1C(=O)O"
  AC50: "> 10 µM"
- Compound: "COc1ccc2cccc(CCNC(C)=O)c2c1"
  AC50: "2.07 µM"
- Compound: "COc1ccccc1OCC(O)COC(N)=O (stereo not drawn)"
  AC50: "> 10 µM"
- Compound: "O=C(O)Cc1cn(-c2ccccc2)nc1-c1ccc(Cl)cc1"
  AC50: "> 30 µM"
- Compound: "O=C(NC[C@H]1CN(c2ccc(N3CCOCC3=O)cc2)C(=O)O1)c1ccc(Cl)s1"
  AC50: "> 30 µM"

###

- Study system: Muscarinic acetylcholine receptor M2 (Homo sapiens, UniProt P08172)
- Sequence (P08172 whole entry): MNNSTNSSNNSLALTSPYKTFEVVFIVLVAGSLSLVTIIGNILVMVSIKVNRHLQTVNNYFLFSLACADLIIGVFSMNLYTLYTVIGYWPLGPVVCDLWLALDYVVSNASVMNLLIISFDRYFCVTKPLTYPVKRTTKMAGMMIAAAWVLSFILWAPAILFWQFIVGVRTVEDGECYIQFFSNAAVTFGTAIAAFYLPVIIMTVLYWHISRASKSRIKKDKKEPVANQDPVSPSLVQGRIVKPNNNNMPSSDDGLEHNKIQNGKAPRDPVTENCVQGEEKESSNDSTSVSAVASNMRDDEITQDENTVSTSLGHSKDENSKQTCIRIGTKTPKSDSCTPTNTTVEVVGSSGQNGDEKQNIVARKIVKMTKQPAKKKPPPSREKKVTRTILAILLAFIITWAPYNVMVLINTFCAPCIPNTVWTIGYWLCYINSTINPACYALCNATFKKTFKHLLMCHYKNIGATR

- Molecule: "CCC(=O)O[C@H]1[C@H](O[C@@H]2[C@@H](C)[C@H](O[C@H]3C[C@@](C)(OC)[C@@H](O)[C@H](C)O3)[C@@H](C)C(=O)O[C@H](CC)[C@@](C)(O)[C@H](O)[C@@H](C)C(=O)[C@H](C)C[C@@]2(C)O)O[C@H](C)C[C@@H]1N(C)C [ERYTHROMYCIN PROPIONATE]"
  AC50: "> 30 µM"
- Molecule: "O=C(Cn1ccnc1[N+](=O)[O-])NCc1ccccc1"
  AC50: "> 30 µM"
- Molecule: "O=[N+]([O-])c1cncn1CCN1CCOCC1"
  AC50: "> 30 µM"
- Molecule: "Cn1cc[nH]c1=S"
  AC50: "> 30 µM"
- Molecule: "Nc1ccc(C(=O)O)cc1"
  AC50: "> 30 µM"
- Molecule: "Oc1c(I)cc(I)c2cccnc12"
  AC50: "> 10 µM"
- Molecule: "COc1ccc2c(c1)OC(C)(C)C(c1ccccc1)C2c1ccc(OCCN2CCCC2)cc1 (stereo unspecified)"
  AC50: "9.13 µM"
- Molecule: "CCS(=O)(=O)N1CC(CC#N)(n2cc(-c3ncnc4[nH]ccc34)cn2)C1"
  AC50: "> 30 µM"
- Molecule: "CCC1C(C)=NN=C(c2ccc(OC)c(OC)c2)c2cc(OC)c(OC)cc21 (stereo unspecified)"
  AC50: "> 30 µM"
- Molecule: "CCOC(=O)N[C@@H]1CC[C@@H]2[C@@H](C1)C[C@H]1C(=O)O[C@H](C)[C@H]1[C@H]2/C=C/c1ccc(-c2cccc(F)c2)cn1"
  AC50: "> 30 µM"
- Molecule: "Cc1cc2c(cc1CC(=O)c1sccc1S(=O)(=O)Nc1onc(C)c1Cl)OCO2"
  AC50: "> 30 µM"
- Molecule: "CCCC1C(=O)N2C(N(C)C)=Nc3ccc(C)cc3N2C1=O (stereo unspecified)"
  AC50: "> 30 µM"
- Molecule: "CN1CCN(C(c2ccccc2)c2ccccc2)CC1"
  AC50: "0.334 µM"
- Molecule: "OC[C@@H](O)[C@@H](O)[C@H](O)[C@H](O)CO"
  AC50: "> 30 µM"
- Molecule: "CN1C(=O)N(C)C2C1N(C)C(=O)N2C (stereo unspecified)"
  AC50: "> 30 µM"
- Molecule: "CC(C)C(=O)Nc1ccc([N+](=O)[O-])c(C(F)(F)F)c1 [FLUTAMIDE]"
  AC50: "> 30 µM"

###

Each item that follows carries a reported AC50.
- Study system: Muscarinic acetylcholine receptor M2 (Homo sapiens, UniProt P08172)
- Sequence (P08172 whole entry): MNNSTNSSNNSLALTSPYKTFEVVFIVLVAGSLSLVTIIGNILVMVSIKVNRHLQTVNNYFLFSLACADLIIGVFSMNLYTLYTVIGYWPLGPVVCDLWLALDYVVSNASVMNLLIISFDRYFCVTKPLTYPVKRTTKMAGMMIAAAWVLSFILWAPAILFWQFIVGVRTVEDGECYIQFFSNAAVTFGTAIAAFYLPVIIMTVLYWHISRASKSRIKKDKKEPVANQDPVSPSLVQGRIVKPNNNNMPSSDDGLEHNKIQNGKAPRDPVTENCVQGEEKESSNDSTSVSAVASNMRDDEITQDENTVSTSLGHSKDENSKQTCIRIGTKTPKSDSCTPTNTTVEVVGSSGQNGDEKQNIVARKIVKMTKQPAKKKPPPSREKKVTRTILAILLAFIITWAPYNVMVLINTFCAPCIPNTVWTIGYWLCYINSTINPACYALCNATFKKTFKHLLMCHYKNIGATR
- Type: functional, cell-based
Property name: AC50

- Substance smiles: "O=C(Cn1ccnc1[N+](=O)[O-])NCc1ccccc1"
  Study system: "Muscarinic acetylcholine receptor M2 (Homo sapiens, UniProt P08172)"
  Reported result: "> 30 µM"
- Substance smiles: "CC(=O)N[C@H]1[C@H]([C@H](O)[C@H](O)CO)OC(C(=O)O)=C[C@@H]1N=C(N)N"
  Study system: "Muscarinic acetylcholine receptor M2 (Homo sapiens, UniProt P08172)"
  Reported result: "> 10 µM"
- Substance smiles: "COc1ccc2c(c1)c(CC(=O)OCC(=O)O)c(C)n2C(=O)c1ccc(Cl)cc1"
  Study system: "Muscarinic acetylcholine receptor M2 (Homo sapiens, UniProt P08172)"
  Reported result: "> 30 µM"
- Substance smiles: "CC/C=C\\C/C=C\\C/C=C\\CCCCCCCC(=O)O"
  Study system: "Muscarinic acetylcholine receptor M2 (Homo sapiens, UniProt P08172)"
  Reported result: "> 30 µM"
- Substance smiles: "COc1ccc2c(c1)C(=O)N(CCc1ccc(S(=O)(=O)NC(=O)NC3CCCCC3)cc1)C(=O)C2(C)C"
  Study system: "Muscarinic acetylcholine receptor M2 (Homo sapiens, UniProt P08172)"
  Reported result: "> 30 µM"
- Substance smiles: "CC[C@H](C)C(=O)O[C@H]1C[C@H](O)C=C2C=C[C@H](C)[C@H](CC[C@@H](O)C[C@@H](O)CC(=O)O)[C@H]21"
  Study system: "Muscarinic acetylcholine receptor M2 (Homo sapiens, UniProt P08172)"
  Reported result: "> 30 µM"

###

- Study system: UniProt:P08913
- Sequence (P08913 whole entry): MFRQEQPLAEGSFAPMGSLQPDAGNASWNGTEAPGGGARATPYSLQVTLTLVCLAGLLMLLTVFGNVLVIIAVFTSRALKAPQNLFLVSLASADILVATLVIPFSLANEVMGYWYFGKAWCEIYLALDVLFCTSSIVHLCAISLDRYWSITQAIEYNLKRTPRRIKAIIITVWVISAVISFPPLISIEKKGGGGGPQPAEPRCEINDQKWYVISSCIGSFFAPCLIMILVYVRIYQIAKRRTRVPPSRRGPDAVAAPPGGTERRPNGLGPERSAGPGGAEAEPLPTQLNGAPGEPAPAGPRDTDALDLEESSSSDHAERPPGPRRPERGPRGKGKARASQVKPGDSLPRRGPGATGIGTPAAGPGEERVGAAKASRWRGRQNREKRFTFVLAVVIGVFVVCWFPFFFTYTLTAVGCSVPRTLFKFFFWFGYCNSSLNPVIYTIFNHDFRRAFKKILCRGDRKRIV
- Type: functional, cell-based
Reported AC50 values for a set of compounds
Property name: AC50

- Compound: "C#CC1(OC(N)=O)CCCCC1 [ETHINAMATE]"
  Reported result: "> 10 µM"
- Compound: "C[C@H]1O[C@H](O[C@H]2[C@H](O)[C@@H](O)[C@@H](O[C@H]3[C@H](O)[C@@H](O)C(O)O[C@@H]3CO)O[C@@H]2CO)[C@H](O)[C@@H](O)[C@@H]1N[C@H]1C=C(CO)[C@@H](O)[C@H](O)[C@H]1O (stereo partly drawn)"
  Reported result: "> 30 µM"
- Compound: "COc1ccc(C(=O)N2CCN(c3ccc4c(c3)CCC(=O)N4)CC2)cc1OC"
  Reported result: "> 30 µM"

###

- Study system: Alpha-1A adrenergic receptor (Homo sapiens, UniProt P35348); also: assay procedure not described here
- Sequence (P35348 whole entry): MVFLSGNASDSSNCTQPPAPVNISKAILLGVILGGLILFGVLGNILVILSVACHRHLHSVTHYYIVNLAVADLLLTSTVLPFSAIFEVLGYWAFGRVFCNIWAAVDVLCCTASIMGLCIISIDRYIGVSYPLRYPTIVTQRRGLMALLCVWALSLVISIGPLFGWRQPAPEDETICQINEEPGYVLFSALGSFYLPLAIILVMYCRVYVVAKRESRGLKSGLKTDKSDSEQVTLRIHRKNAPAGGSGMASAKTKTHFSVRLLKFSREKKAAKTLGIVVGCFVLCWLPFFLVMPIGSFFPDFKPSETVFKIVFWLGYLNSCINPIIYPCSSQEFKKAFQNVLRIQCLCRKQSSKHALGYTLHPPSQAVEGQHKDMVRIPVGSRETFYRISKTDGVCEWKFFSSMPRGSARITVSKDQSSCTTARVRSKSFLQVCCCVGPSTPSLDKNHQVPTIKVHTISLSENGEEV
- Assay type: functional, cell-based

- Compound: "C[C@@H]1O[C@@H](OC[C@H]2O[C@@H](Oc3c(-c4ccc(OCCO)c(OCCO)c4)oc4cc(OCCO)cc(O)c4c3=O)[C@H](O)[C@@H](O)[C@@H]2O)[C@H](O)[C@H](O)[C@H]1O [TROXERUTIN]"
  AC50: "> 30 µM"
- Compound: "CCCC1C(=O)N2C(N(C)C)=Nc3ccc(C)cc3N2C1=O (centres undefined) [APAZONE]"
  AC50: "> 30 µM"
- Compound: "CS(=O)(=O)Nc1cc2occ(NC=O)c(=O)c2cc1Oc1ccccc1 [IGURATIMOD]"
  AC50: "> 30 µM"
- Compound: "O=C(Nc1ccccc1)OCC(CN1CCCCC1)OC(=O)Nc1ccccc1 (centres undefined) [DIPERODON]"
  AC50: "> 30 µM"
- Compound: "CCC(Cc1c(I)cc(I)c(N)c1I)C(=O)O (centres undefined) [IOPANOIC ACID]"
  AC50: "24.2 µM"
- Compound: "O=C(NC1CCN(CCCCC2(C(=O)NCC(F)(F)F)c3ccccc3-c3ccccc32)CC1)c1ccccc1-c1ccc(C(F)(F)F)cc1 [LOMITAPIDE]"
  AC50: "2.4 µM"
- Compound: "Cn1cc[nH]c1=S [METHIMAZOLE]"
  AC50: "> 30 µM"
- Compound: "CN(C)C(=O)Oc1ccc[n+](C)c1 [PYRIDOSTIGMINE]"
  AC50: "> 30 µM"
- Compound: "CN1CCC2=C(C1)c1ccccc1Cc1ccccc12 [SETIPTILINE]"
  AC50: "0.231 µM"

Value source: ChEMBL document CHEMBL5291721
